- method-description: in vitro
- run-parameters: human, hek293t cells
quantity-kind: viability at 48 h, 25 µM (%)

• CC(C)NC(=O)C(C#N)=Cc1cccc(Cl)c1 = 99.7
• C=CC(=O)NC(c1ccc(F)cc1)c1ccccn1 (centres unmarked) = 97
• CCc1nocc1CN(C)C(=O)CCl = 1.49
• CC(Cl)C(=O)N1CCC(n2c(=O)[nH]c3ccccc32)CC1 (centres unmarked) = 109
• Cc1ccc2[nH]c3c(c2c1)CCCC3N(C)C(=O)CCl (centres unmarked) = 0.1
• CC(C)NC(=O)C(C#N)=Cc1ccc(F)cc1 = 119
• CC(C1CC1)N(C(=O)CCl)C1CC1 (centres unmarked) = 1.06
• C=CC(=O)NC(c1ccc(F)cc1)C1CC1 (centres unmarked) = 89.2
• N#CC(=Cc1ccc([N+](=O)[O-])cc1)C(=O)Nc1cccc2ncccc12 = 114
• C=CC(=O)NCC1=NOCC1 = 104
• CC(Cl)C(=O)N(CCc1ccc(F)cc1F)C(C)C (centres unmarked) = 101

---

- method-description: in vitro
- run-parameters: human, hek293t cells
viability at 48 h, 25 µM strictly under 80% means y; at 80% or over means n.

- O=C(CCl)N1N=C(c2ccccc2)CC1c1ccccc1 (stereo not drawn) [4-I20]: y
- CC(Cl)C(=O)NC1CCC(C)(C)c2ccccc21 (stereo not drawn) [6-H21]: n
- COc1ccccc1NC(=O)C(C#N)=Cc1ccco1 [8-H08]: n
- CC(Cl)C(=O)Nc1cccc(C#N)c1 (stereo not drawn) [5-B10, 2-chloro-N-(3-cyanophenyl)propanamide]: y
- O=C(CCl)NCCc1cccc(Cl)c1 [5-O05]: y
- CC(Cl)C(=O)NCCS(=O)(=O)Nc1ccccn1 (stereo not drawn) [7-L05]: n

---

- method-description: in vitro
- run-parameters: human, hek293t cells
This listing pairs molecules with measured viability at 48 h, 25 µM.
quantity-kind: viability at 48 h, 25 µM

• C=CCN(Cc1ccc(Cl)s1)C(=O)CCl [5-M05] = 0.327%
• C=CC(=O)NCc1ccsc1S(N)(=O)=O [2-J15] = 53.1%
• CSc1nsc(NC(=O)CCl)n1 [4-C13] = 63.6%
• C=CC(=O)NCC1(S(=O)(=O)CC)CC1 [3-O13] = 48.1%
• C=CC(=O)N1CCC(C(=O)NCc2ccc(S(N)(=O)=O)cc2)CC1 [3-N10] = 85.1%
• Cc1cc(C=C(C#N)C(=O)Nc2nccs2)ccc1-n1cncn1 [9-J14] = 104%
• CCN(CC)S(=O)(=O)c1cccc(NC(=O)CCl)c1 [4-M07] = 1.11%
• Cc1cccc2nc(C3CCN(C(=O)C(C)Cl)CC3)oc12 (stereo not drawn) [7-M12] = 79.6%
• CC(Cl)C(=O)NCCNC(=O)c1ccoc1 (stereo not drawn) [7-E21] = 90.5%
• CC(Cl)C(=O)N1CC(C(=O)N2CCN(C)CC2)Oc2ccccc21 (stereo not drawn) [7-A20] = 77.1%
• C=CC(=O)N1CCC[C@H]1C(=O)Nc1cccc(C)n1 [1-B10] = 77.1%
• C=CC(=O)NC(=O)NCc1ccccc1 [1-I04, 1-benzyl-3-(prop-2-enoyl)urea] = 0.515%
• CC(Cl)C(=O)NCCc1nnc(C(C)C)s1 (stereo not drawn) [7-E03] = 123%
• O=C(CCl)N1c2ccccc2SCC1c1ccccc1 (stereo not drawn) [4-M18] = -0.0405%
• C=CC(=O)N1C2C=C(c3nccn3C)CC1CC2 (stereo not drawn) [3-G03] = 52.5%
• NC(=O)Nc1ccc(C(=O)CCl)cc1 [10-J07, [4-(2-chloroacetyl)phenyl]urea] = 108%
• Cc1ccc(N(CCC#N)C(=O)CCl)cc1C [4-A03] = 0.265%
• O=C(CCl)Nc1cc(Cl)cc(Cl)c1 [4-K09, 2-chloro-N-(3,5-dichlorophenyl)acetamide] = 1.41%
• C=CC(=O)N1CCC(NC(C)=O)(c2noc(C)n2)C1 (stereo not drawn) [2-G16] = 94.8%
• Cc1c(CN(CC2CC=CCC2)C(=O)CCl)cnn1C (stereo not drawn) [5-C14] = 0.469%
• Cc1cc(C(=O)CCl)c(C)n1Cc1ccccc1Cl [10-P16] = 0.942%
• O=C(CCl)NC1CCSc2ccc(F)cc21 (stereo not drawn) [5-M09] = 0.504%
• Cc1cc(C=C(C#N)C(=O)Nc2ccccc2)c(C)n1CC(C)C [9-A07] = 115%
• CC(Cl)C(=O)c1ccc(NS(C)(=O)=O)cc1 (stereo not drawn) [10-A08] = 93.7%
• COC1(OC)CCOCC1NC(=O)CCl (stereo not drawn) [7-D10] = 19.1%
• C=CC(=O)Nc1ccc(-n2nc(C)[nH]c2=O)cc1 [2-E16] = 101%
• COc1ccc(OC)c(N2C(=O)C=CC2=O)c1 [10-N15] = 110%
• Cc1ncsc1C=C(C#N)C(=O)NCCc1ccccc1 [9-H06] = 99.1%
• O=C(CCl)N1CCOCC1c1noc(-c2ccccc2)n1 (stereo not drawn) [5-E10] = 1.07%
• CC(C)(C)c1ccc(C=C(C#N)C(=O)Nc2ccc(C(=O)O)cc2)cc1 [9-I21] = 128%
• CC(Cl)C(=O)NC1CCN(Cc2cscn2)CC1 (stereo not drawn) [7-D07] = 111%
• C=CC(=O)Nc1ccc(Cl)cc1F [1-I10] = 47.1%
• O=C(CCl)C1CCCC2(CC2)C1 (stereo not drawn) [10-E11] = 79.6%
• C=CC(=O)N1CCC(C(=O)N(CC)Cc2occc2C)CC1 [2-L08] = 88.8%
• CCc1cccc(CC)c1NC(=O)C(C#N)=Cc1ccc(C#N)cc1 [9-O15] = 36.5%
• O=C(CCl)N(Cc1cnn(-c2ccccc2)c1)C1CC1 [6-L09] = 1.4%
• Cc1cc(CN(C(=O)CCl)C2CCCC2)c2ccccc2n1 [7-B20] = 0.493%
• C=CC(=O)Nc1cc(NC(=O)c2ccc([N+](=O)[O-])o2)ccc1F [3-J04] = 0.415%
• C=CC(=O)Nc1ccc(C(F)C(F)(F)F)cc1 (stereo not drawn) [1-O20] = 85.4%
• O=C(CCl)NCC1(c2ccccc2)CCC1 [4-O19] = 0.976%
• C=CC(=O)Nc1cc(Cl)cc(C)c1OC [1-E16] = 45.9%
• N#CC(=Cc1ccco1)C(=O)NCc1nc(-c2ccncc2)cs1 [9-B20] = 109%
• C=CC(=O)NCc1nc2ccccc2s1 [1-I12] = 35.8%
• Cc1ccc(N2C(=O)C=CC2=O)c([N+](=O)[O-])c1 [10-N13] = 133%
• N#CC(=Cc1cccc(O)c1)C(=O)Nc1ccccc1C(=O)O [9-O16] = 125%
